The entries below are paired with their reported drug sensitivity score.
Tested on: KURAMOCHI
Test method notes: drug sensitivity score (DSS2) on cancer cell count; higher = more sensitive; extreme values may be limits of the assay
Measurement parameters: co-cultured fibroblast: BJHTERT; 72 h
# output: numeric value plus its unit

Some compounds with recorded drug sensitivity score:
Reported drug sensitivity score for "Nc1ncnc2c1nc(Cl)n2[C@@H]1O[C@H](CO)[C@@H](O)[C@H]1O" was 10.1 DSS

Reported drug sensitivity score for "CNC(=O)c1ccc(-c2cnc3ncc(Cc4ccc5ncccc5c4)n3n2)cc1F" was 0 DSS

Reported drug sensitivity score for "CC1=C(/C=C/C(C)=C/C=C/C(C)=C/C(=O)O)C(C)(C)CCC1" was 0 DSS

Reported drug sensitivity score for "C[C@@H](Nc1cc(F)cc(F)c1)c1cc(C(=O)N(C)C)cc2c(=O)cc(N3CCOCC3)oc12" was 8.7 DSS

Reported drug sensitivity score for "NC1(c2ccc(-c3nc4ccn5c(=O)[nH]nc5c4cc3-c3ccccc3)cc2)CCC1" was 5.8 DSS

Others:
Reported drug sensitivity score for "CC1(C)CCC(CN2CCN(c3ccc(C(=O)NS(=O)(=O)c4ccc(NCC5CCOCC5)c([N+](=O)[O-])c4)c(Oc4cnc5[nH]ccc5c4)c3)CC2)=C(c2ccc(Cl)cc2)C1" was 0 DSS

Reported drug sensitivity score for "Nc1ccn([C@@H]2O[C@H](CO)[C@@H](O)C2(F)F)c(=O)n1" was 18.4 DSS

Reported drug sensitivity score for COCC[n+]1c2c(n(Cc3cnccn3)c1C)C(=O)c1ccccc1C2=O [Sepantronium bromide] was 40.7 DSS

Reported drug sensitivity score for "O=C(NOCCO)c1ccc2cncn2c1Nc1ccc(I)cc1F" was 0 DSS

Reported drug sensitivity score for "CC(C)Oc1ccc(C(=O)N[C@H](CNC(=O)CN(C)C)Cc2ccc(-c3cn4cccc([C@H](C)O)c4n3)cc2)cc1Cl" was 18.1 DSS

Reported drug sensitivity score for "O=C(NC[C@H](O)CN1CCc2ccccc2C1)c1cc(NC2COC2)ncn1" was 0.1 DSS

Reported drug sensitivity score for "CC(C)(O)CNc1nc(Nc2ccnc(C(F)(F)F)c2)nc(-c2cccc(C(F)(F)F)n2)n1" was 0.3 DSS

Source: the supplement of paper PMC12420376
